Tested on: DU-145 prostate
measurement.notes: NCI-60 one-dose screen, 48 h (100 = growth as untreated, 0 = no growth, -100 = all killed)
test.settings: 10 µM unless noted
Method: Cells are grown in 96 well plates and exposed to the test compound for 48 hours. Compounds are tested at a single concentration, which is 10^-5 M for most compounds. The reported endpoint is percent growth (GI% or GIPRCNT), where numbers from 0 - 100% represent growth inhibition, and numbers from -100% - 0 represent cell death. For example, a value of 40 represents 60% growth inhibition. A value of 0 means no net growth occurred over the course of the experiment. […]
Compounds without any hit were thinned out: in the full panel of roughly 83,000, 20% have a hit. Calls of active or inactive are those of the source. How the source made its calls: active means growth percent below 10; inactive means the rest.

| smiles.entry | growth |
| --- | --- |
| COc1c(C)c2c(c(O)c1C/C=C(\C)CCC(=O)O)C(=O)OC2 | 50.8% (inactive) |
| C[n+]1ccccc1C[n+]1ccccc1 | 114% (inactive) |
| Cc1cc(C(=O)c2ccc(Cl)cc2)ccc1O | 98.2% (inactive) |

###

System: SR leukemia
measurement.notes: NCI-60 one-dose screen, 48 h (100 = growth as untreated, 0 = no growth, -100 = all killed)
test.settings: 10 µM unless noted
About 83,000 compounds went through this panel and 20% of them were active in at least one assay; those are over-represented in the sample as a whole.
property: growth (%)

| compound | property | numeric.value |
| --- | --- | --- |
| Nc1cc(-c2ccccc2)ccc1O | growth | 28.7 |
| COc1cc(NCc2ccc3nc(N)nc(N)c3c2C)cc(OC)c1OC (tested in a mixture with another compound) | growth | 31.7 |
| COC(=O)c1cc([N+](=O)[O-])cc([N+](=O)[O-])c1Cl | growth | 30.9 |
| Cc1cc2cccnc2c2ncccc12 | growth | 6.21 |
| CC(C)N=C(N)/N=C(\N)Nc1ccc2ccc3ccccc3c2c1 | growth | -47.3 |
| CC(C)(C)c1ccc(O)c(Br)c1 | growth | 106 |
| NC(=S)N/N=C\c1nccc2c(C(F)(F)F)cccc12 | growth | -28.6 |
| Oc1ccc(Nc2ccc3ccccc3c2)cc1 | growth | 50.4 |
| NCCCN(CCCN)CCCNCc1c2ccccc2c(CNCCCN(CCCN)CCCN)c2ccccc12 | growth | 96.6 |
| O=C1C=CC(=O)N1c1ccc(O)cc1 | growth | 91.7 |
| COc1ccc2c(c1)c(CC(=O)O)c(C)n2C(=O)c1ccc(Cl)cc1 | growth | 106 |
| O=C1C(=O)c2cccnc2-c2ncccc21 | growth | -45.5 |
| O=C1c2ccccc2Cc2cccc(Cl)c21 | growth | 64.1 |
| O=C1C=CC(=O)N1c1cccc2c1CCCC2 | growth | 87.6 |
| Oc1cc(Cl)ccc1Cc1ccc(Cl)cc1O | growth | 59.1 |
| S=C=Nc1ccc(N2CCOCC2)cc1 | growth | 71.2 |
| CCCN(CCC)C(=O)c1ccc(C)cc1 | growth | 95 |
| O=C1CSC(=S)N1Cc1cccnc1 | growth | -10.3 |

###

System: A549/ATCC NSCLC
measurement.notes: NCI-60 one-dose screen, 48 h (100 = growth as untreated, 0 = no growth, -100 = all killed)
test.settings: 10 µM unless noted
Compounds without any hit were thinned out: in the full panel of roughly 83,000, 20% have a hit.
This section presents compounds with their documented growth values.
property: growth (%)

| compound | property | numeric.value |
| --- | --- | --- |
| O=C1C(=O)c2cccnc2-c2ncccc21 | growth | 6.49 |
| S=C(SSC(=S)N1CCOCC1)N1CCOCC1 | growth | 57.2 |
| O=C1C=Cc2ccccc2/C1=C/c1nc(-c2ccccc2)oc1O | growth | 107 |
| CCNc1nnnn1CC | growth | 113 |
| CCCCCCCCCCCC1N=C(N)N=C(N)N1c1cccc(Br)c1 (centres undefined) | growth | 21.7 |
| CCCC[n+]1c(/C=C\c2c(OC)cc(OC)cc2OC)ccc2ccccc21 | growth | -22.9 |
| CC(C)N=C(N)/N=C(\N)Nc1ccc2ccc3ccccc3c2c1 | growth | -65.2 |
| C(=N\Nc1ccc2ccccc2n1)/c1ccccn1 | growth | 8.26 |
| CCCCCCCCCCCCCCCCCC[S+](C)CC (centres undefined) | growth | 42.3 |
| COC(=O)[C@]1(C)CCC[C@]2(C)c3ccc(C(C)C)cc3C(=O)[C@@H](Br)[C@@H]12 | growth | 90.1 |
| COC(=O)C(=[N+]=[N-])C(=O)c1ccc([N+](=O)[O-])o1 | growth | 65.2 |
| O=C(O)c1cc2c(s1)C(=O)c1sccc1C2=O | growth | 28.7 |
| CCC(C)C(N)C(=O)NC(CC(N)=O)C(=O)NC(CC(C)C)C(=O)NC(CCCCN)C(=O)NC(C)C(=O)NC(CC(C)C)C(=O)NC(C)C(=O)NC(C)C(=O)NC(CC(C)C)C(=O)NC(C)C(=O)NC(CCCCN)C(=O)NC(CCCCN)C(=O)NC(C(=O)NC(CC(C)C)C(N)=O)C(C)CC (centres undefined) | growth | 90.3 |
| N#CCc1cccc2ccccc12 | growth | 103 |
